Origin of values: BigSolDB 2.1

Conditions: in ethyl acetate, 278.15 K
metric: solubility (mole fraction)
Answer with the value's number alone.

The recorded solubility (mole fraction) for COc1cc2nc(Cl)nc(N)c2cc1OC is 0.000322

---

Details: in ethanol, 283.15 K
metric: solubility (mole fraction)

The recorded solubility (mole fraction) for COc1cc2nc(Cl)nc(N)c2cc1OC is 0.000246

---

Conditions: in ethyl acetate, 288.15 K
metric: solubility (mole fraction)

The recorded solubility (mole fraction) for COc1cc2nc(Cl)nc(N)c2cc1OC is 0.000443

---

Details: in ethyl acetate, 283.15 K
metric: solubility (mole fraction)
Answer with the value's number alone.

The recorded solubility (mole fraction) for COc1cc2nc(Cl)nc(N)c2cc1OC is 0.000375
